test system: A549; assay: NCI tumour cell line growth inhibition, 48 h
Calls of active or inactive are those of the source. No stated cut-off is given here; in the data, active = GI50 up to about 1.1 µM and inactive = higher.
Form field: GI50 (one value per entry).

Consider the following illustrative entries.
{"compound": "CC(=O)/C=C/CCC(=O)/C=C/C(=O)OC(CCC(=O)/C=C/C(=O)O)CC(C)=O (stereo not given)", "experimental readout": "GI50", "result": "> 100 µM (inactive)"}
{"compound": "CS[C@]12C(=O)C[C@@]3(C)[C@@H](CC[C@]3(O)C(=O)CO)[C@@H]1CCC1=CC(=O)CC[C@@]12C", "experimental readout": "GI50", "result": "> 100 µM (inactive)"}
{"compound": "CC1(C)C(CC(=O)O)CCCC1CC(=O)O (stereo not given)", "experimental readout": "GI50", "result": "> 100 µM (inactive)"}
{"compound": "O=C(Cn1ccnc1[N+](=O)[O-])c1ccccc1", "experimental readout": "GI50", "result": "> 100 µM (inactive)"}

Exam item: Could you share which GI50 value was measured for CCCCN(CCCC)c1c([N+](=O)[O-])c(=O)nc2ccccn12 ?
Marked response: 33.7 µM (inactive)

---

system: OVCAR-8; assay: NCI tumour cell line growth inhibition, 48 h
Active and inactive are the calls of the source. Cut-off read from the data, not from the text of the source: active = GI50 up to about 1.1 µM and inactive = higher.
# GI50 per entry

{"compound": "O=S(=O)(Cc1ccccc1)c1nnc(S(=O)(=O)c2ccc(Cl)cc2)s1", "experimental readout": "GI50", "result": "19 µM (inactive)"}
{"compound": "CC1=C(C)C(=O)C(C2=C(C3=CC(=O)C(C)=C(C)C3=O)C(=O)c3ccccc3C2=O)=CC1=O", "experimental readout": "GI50", "result": "2.38 µM (inactive)"}
{"compound": "Cc1ccc2c(c1)nc1n2C(N)=Nc2ccccc2S1", "experimental readout": "GI50", "result": "25.5 µM (inactive)"}

Exam item: If you can, please state the reported GI50 value of COc1cc2[nH]c(=O)c3cc(-c4ccccc4)cc4c(Cl)nc(c1OC)c2c43 .
Marked response: 5.14 µM (inactive)

Exam item: Item: CO/N=C1\CC(NC(=O)C(F)(F)F)c2ccsc21 (stereo unspecified)
Marked response: > 100 µM (inactive)

Exam item: What about Clc1ccccc1NN(Cc1ccccn1)c1ccccc1Cl ?
Marked response: 21.2 µM (inactive)

Exam item: # iterate: O=C(O)CNc1ccc2c(c1)Cc1cc(Br)ccc1-2
Marked response: 23.9 µM (inactive)

Exam item: Also CC(=O)c1c(=O)n(-c2ccc(C)cc2)c(O)c2c(N)n[nH]c12 ?
Marked response: > 100 µM (inactive)

Exam item: And what about the compound [N-]=[N+]=Nc1cc(=O)n(-c2ccccc2)c2ccccc12 ?
Marked response: > 100 µM (inactive)

Exam item: Repeat with COc1ccc(O)c(C#N)c1C#N.COc1ccc(OC)c(C#N)c1C#N
Marked response: > 100 µM (inactive)

Exam item: // repeat for C/C(=N\N)C(CN(C)C)C(c1ccccc1)c1c(O)c2ccccc2oc1=O (stereo unspecified) and report
Marked response: > 100 µM (inactive)

Exam item: Field entry: O=C1C(Cl)=C(NCCc2ccc(O)cc2)C(=O)c2c(O)ccc(O)c21
Marked response: > 10 µM (inactive)

Exam item: How about this compound: CCOc1ccc2nc(NC(=O)c3c/c(=N\NC(=O)C[N+](C)(C)C)c4ccc(O)cc4o3)sc2c1
Marked response: 2.14 µM (inactive)

Exam item: What do you get for CCc1ccccc1/N=N/C(=O)NNc1ccccc1CC ?
Marked response: 15.2 µM (inactive)

Exam item: For Nc1nc(N)c2cc(-c3ccccc3)cnc2n1 then?
Marked response: 15.4 µM (inactive)

Exam item: Another compound to look at: CCC1NC(=O)C(NC(=O)c2ncccc2O)C(C)OC(=O)C(c2ccccc2)NC(=O)C2CC(=O)CCN2C(=O)C(Cc2ccccc2)N(C)C(=O)C2CCCN2C1=O (stereo unspecified)
Marked response: > 100 µM (inactive)

Exam item: Now the same for CC(=O)Oc1ccc(-c2c(OC(C)=O)c(OC(C)=O)c(-c3ccc(OC(C)=O)c(OC(C)=O)c3)c(OC(C)=O)c2OC(C)=O)cc1
Marked response: 14.6 µM (inactive)

The reported measurements were obtained from ChEMBL document CHEMBL1201862.
